Test: in vivo
Details: female, athymic nude-Foxn1nu/Foxn1+, mouse, 20 pmol, total radioactivity, Biodistribution Intestine
Where a SMILES comes first, the peptide text is derived from it. Bridges are numbered along the chain shown (N, C = ends). [ ]: non-standard residue; d: D form. The star is where a group is joined. dPhe(4-NHCONH2) = NC(=O)Nc1ccc(C[C@@H](N)C(=O)O)cc1; Phe(4-Cl) = N[C@@H](Cc1ccc(Cl)cc1)C(=O)O; X1 = NCCNCC(CNCCN)C(=O)*
property-name: tissue uptake at 4 h (%ID/g)
Give just the number in %ID/g; leave the unit off.

Given the compound C[C@@H](O)[C@@H]1NC(=O)[C@H](CCCCN)NC(=O)[C@@H](Cc2ccc(NC(N)=O)cc2)NC(=O)[C@H](Cc2ccc(O)cc2)NC(=O)[C@H](NC(=O)[C@H](Cc2ccc(Cl)cc2)NC(=O)C(CNCCN)CNCCN)CSSC[C@@H](C(=O)N[C@H](Cc2ccc(O)cc2)C(N)=O)NC1=O [[^99mTc]Tc-TECANT-1, metal not drawn] (X1-[Phe(4-Cl)][dC]Y[dPhe(4-NHCONH2)]KTC[dY]-NH2; disulfide 2-7) , write its reported tissue uptake at 4 h.
2.4

Kindly review the next compound as well.
Given the compound C[C@@H](O)[C@@H]1NC(=O)[C@H](CCCCN)NC(=O)[C@@H](Cc2c[nH]c3ccccc23)NC(=O)[C@H](Cc2ccc(O)cc2)NC(=O)[C@H](NC(=O)[C@H](Cc2ccc(Cl)cc2)NC(=O)C(CNCCN)CNCCN)CSSC[C@@H](C(=O)N[C@H](Cc2ccc(O)cc2)C(N)=O)NC1=O [[^99mTc]Tc-TECANT-2, metal not drawn] , write its reported tissue uptake at 4 h.
0.86
